Test system: C57BL/6J mice
method_notes: Toxicity test, median lethal dose after intraperitoneal injection
Type: in vivo
The entries below come with measured LD50 values attached.
Quick note: give the figure in mg/kg, leave out the unit.

Reference set (3 entries):
CC1(C)NN1CCCCN1NC1(C)C (stereo not shown)	1000
C1CCC2(C1)NN2CCN1NC12CCCC2 (stereo not shown)	1150
CC1(C)NN1CCN1NC12CCCCC2 (stereo not shown)	1125

We now examine a further molecule.
Noted for C1CCC2(CC1)NN2CCN1NC12CCCCC2 (stereo not shown) : its LD50 reads 611
